Test: Drug degradation in NaHCO3/1:1 of DMF:H2O solution assessed as hydrolysis after 24 hrs
Format: physicochemical
Settings: NaHCO3 in 1:1 DMF:H2O solution; read-out: Drug degradation
parameter-measured: degraded at 24 h (%)
One number for each entry, in %.

Data point: `CC(C)(C)OC(=O)N1C[C@@H](CCl)c2c1cc1c3c(cccc23)NC(=O)O1` ; degraded at 24 h = 12

====

Assay: Drug degradation in NaHCO3/MeOH solution assessed as hydrolysis after 48 hrs
Type: physicochemical
Conditions: read-out: Drug degradation
parameter-measured: degraded at 48 h (%)
Give bare numbers, in %.

Data point: `CC(C)(C)OC(=O)N1C[C@@H](CCl)c2c1cc1c3c(cccc23)NC(=O)O1` ; degraded at 48 h = 100
